Assay: CCTE_Shafer_MEA_acute_burst_percentage_mean: CCTE's Neural Acute Assay for Percentage of Spikes in a Burst, Shafer Lab (AID 2284017);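 on AC50: curve fitted for loss of signal so potency reflects decreased burst percentage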
Activity calls are given as the source filed them. How the source made its calls: active means hit-call score of the fitted dose curve at least 0.9, where 1 is the maximum; inactive means score below 0.9.
METRIC: AC50

Consider the reported AC50 for these molecules:
molecule=CNC(=O)Oc1cccc2ccccc12 result=inactive
molecule="CCCCC(O)(Cn1cncn1)c1ccc(Cl)cc1Cl (centres undefined)" result=inactive
molecule="CC(C)=CC1C(C(=O)OCc2coc(Cc3ccccc3)c2)C1(C)C (centres undefined)" result="15 µM (active)"
molecule=CCOc1nc(F)cc2nc(S(=O)(=O)Nc3c(Cl)cccc3Cl)nn12 result=inactive
molecule=CCOP(=O)(OCC)Oc1nc(Cl)c(Cl)cc1Cl result="34.9 µM (active)"
molecule=N#CN=C1SCCN1Cc1ccc(Cl)nc1 result=inactive
molecule="CCCN(CC)CC1COC2(CCC(C(C)(C)C)CC2)O1 (centres undefined)" result=inactive
molecule=CN/C(=N\[N+](=O)[O-])NCc1cnc(Cl)s1 result=inactive
molecule=Cc1nc(N(C)C)nc(OC(=O)N(C)C)c1C result=inactive
molecule=O=C(Nc1ccccc1-c1ccc(Cl)cc1)c1cccnc1Cl result="28.5 µM (active)"

Please examine the following record next.
Given the molecule COP(=S)(OC)SCn1nnc2ccccc2c1=O , what is its reported AC50?
inactive
